tested on: AGS (ATCC-CRL-1739) cells; experiment: Cell viability assay, G12D (AGS); assay type: cell-based, human; conditions: Homo sapiens, KRAS cell viability, 72 hrs, Cell Counting Kit-8
experimental_endpoint: pIC50
pIC50 (log units): -log10 of the concentration in mol/L.

Some molecules with recorded pIC50:
molecule | tested_on | pIC50
CO[C@@H](C)c1ncc(N2CCN(C)CC2)cc1-c1c2c3cc(c(F)cc3n1CC(F)(F)F)-c1csc(n1)C[C@H](NC(=O)[C@H](C(C)C)N1CCCC3(CCN(C(=O)[C@H](F)Cl)CC3)C1=O)C(=O)N1CCC[C@H](N1)C(=O)OCC(C)(C)C2 (atropisomer, axis not shown; (M)) | AGS (ATCC-CRL-1739) cells | 7.12
CO[C@@H](C)c1ncc(N2CCOCC2)cc1-c1c2c3cc(c(F)cc3n1CC(F)(F)F)-c1csc(n1)C[C@H](NC(=O)[C@H](C(C)C)N1CC[C@]3(CCN(C(=O)[C@H](F)Cl)C3)C1=O)C(=O)N1CCC[C@H](N1)C(=O)OCC(C)(C)C2 (atropisomer, axis not shown; (M)) | AGS (ATCC-CRL-1739) cells | 5.89

From here, focus on the item given below.
For CO[C@@H](C)c1ncc(N2CCN(C)CC2)cc1-c1c2c3cc(c(F)cc3n1CC(F)(F)F)-c1csc(n1)C[C@H](NC(=O)[C@H](C(C)C)N(C)C(=O)C1(F)CCN(C(=O)[C@H](F)Cl)CC1)C(=O)N1CCC[C@H](N1)C(=O)OCC(C)(C)C2 (atropisomer, axis not shown; (M)) , what is its reported pIC50?
6.98
